# reported inhibition; entries follow
- Procedure Details: HepG2 cytotoxicity, primary screen, cytotoxicity control for P. falciparum antimalarial project, cell-based, ATP luminescence (AID 2303);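 further: 0% = DMSO wells and 100% = digitonin-killed cells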
- Reported Conditions: HepG2 viability, 24-48 h, at 10 µM, stronger effect = higher value
Activity calls are given as the source filed them.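 How the source made its calls: active means inhibition above 50%; inactive means the rest.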

Examples from the recorded data:
CC(Cc1ccc(OCCCCOc2ccccc2)cc1)NCCc1ccccc1Cl (stereo not given) ... 100% (active)
Cc1cc2ccc(CNCCc3ccccc3Br)cc2nc1N ... -1% (inactive)
CC[C@H]1CN2CC[C@@H]1C[C@H]2[C@H](O)c1cc(N2CCC(N3CCCCC3)CC2)nc2ccc(OC)cc12 ... 0% (inactive)
CNCCCCCCOc1ccc(CC(C)NCC(O)c2cccc(C(F)(F)F)c2)cc1 (stereo not given) ... 99% (active)

# input For the molecule O=C(/C=C/c1cc(C(F)(F)F)ccc1F)NC1CCC(CN2CCC(c3c[nH]c4ccccc34)CC2)CC1 (stereo not given) , what inhibition is on record?
# output 5% (inactive)

---

- Procedure Details: sensitizers of A549 cells to miR-34 induction, primary screen, imaging, A549 dox-inducible miR-34, nuclei and caspase counts (AID 1347080)
- Reported Conditions: A549 miR-34 inducible, Hoechst nuclei count, 48 h; measured here: total cells without miR-34 induction
Recorded cell count values for a group of molecules are listed next.
Form field (numeric): enter value without unit.

Before answering, review these 4 worked examples.
C[N+]1(C)C2CC(OC(=O)[C@@H](CO)c3ccccc3)CC1C1OC12 (stereo not given in full) ... 12100
C[C@]12CCC(=O)C=C1CCC1C2CC[C@@]2(C)C1CC[C@@H]2O (stereo not given in full) ... 11300
NCCC(O)C(=O)N[C@@H]1C[C@H](N)[C@@H](OC2O[C@H](CN)[C@@H](O)[C@H](O)[C@H]2N)[C@H](OC2O[C@H](CO)C(O)[C@H]2O)[C@H]1O (stereo not given in full) ... 9800
O=C(CCC/C=C\C[C@@H]1[C@@H](/C=C/[C@@H](O)COc2cccc(C(F)(F)F)c2)[C@H](O)C[C@@H]1O)NC(CO)CO ... 5370

# input Any idea what its cell count is? The molecule is Cn1c2cccc(=O)c-2nc2ccccc21
# output 3310

# input If you can, please state the reported cell count value of Cc1ccc2c(c1)Cc1c(C(=O)NN3CCCCC3)nn(-c3ccc(Cl)cc3Cl)c1-2 .
# output 6240

# input Returns the measured cell count for the input molecule. Input: CC(CC(C(N)=O)(c1ccccc1)c1ccccc1)N(C)C (stereo not given)
# output 13000

# input Report cell count for C[C@H](Cc1ccc(OCC(=O)O)cc1)NC[C@H](O)c1cccc(Cl)c1 please.
# output 8500

# input Need cell count of O=C1CN=C(c2ccccc2)c2cc([N+](=O)[O-])ccc2N1 , thanks.
# output 9590

# input Looking for the measured cell count of CN1C(=O)[C@]23CC4=CC=C[C@H](O)[C@H]4N2C(=O)[C@@]1(CO)SS3 , can you help?
# output 730

---

- Test system: R275C/beta2Delta
- Procedure Details: modulators of BK channel variants, profiling panel, selectivity assay, cell-based, U2OS BacMam, thallium flux, beta subunits (AID 1259406);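 further: initial slope of Thallos dye fluorescence rise after thallium is added; log ratio against the mean of 0.3% DMSO vehicle wells on the same plate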
- Reported Conditions: at 30 µM
Calls of active or inactive are those of the source.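 How the source made its calls: active means thallium flux through the channel raised or lowered by more than 3 SD from vehicle-only wells, actives on both sides; inactive means the rest.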
Metric Name: log fold change Tl+ flux

These recorded examples may help you get a feel for the data.
Cc1ccc(S(=O)(=O)N2CN3CCN(C3)C2)cc1 ... -0.021 (inactive)
COc1ccc(CCN)cc1OC ... -0.00532 (inactive)
CSC(=NCc1ccccc1Cl)NC(N)=N[N+](=O)[O-] ... 0.0233 (inactive)
C#CCN(C)[C@H](C)Cc1ccccc1 ... -0.0448 (inactive)
O=c1c2ccccc2[nH]c(=S)n1-c1ccccc1 ... -0.000731 (inactive)

# input # query: log fold change Tl+ flux | item C[C@]12CCC(=O)C[C@@H]1CC[C@@H]1[C@@H]2CC[C@@]2(C)[C@H]1CC[C@]2(C)O | system: R275C/beta2Delta
# output 0.0537 (inactive)

# input Return log fold change Tl+ flux measured with R275C/beta2Delta given this molecule: N#CC(C#N)=Cc1cccnc1
# output -0.0205 (inactive)
